Target: Cytosol aminopeptidase (Bos taurus, UniProt P00727)
Sequence (P00727 whole entry): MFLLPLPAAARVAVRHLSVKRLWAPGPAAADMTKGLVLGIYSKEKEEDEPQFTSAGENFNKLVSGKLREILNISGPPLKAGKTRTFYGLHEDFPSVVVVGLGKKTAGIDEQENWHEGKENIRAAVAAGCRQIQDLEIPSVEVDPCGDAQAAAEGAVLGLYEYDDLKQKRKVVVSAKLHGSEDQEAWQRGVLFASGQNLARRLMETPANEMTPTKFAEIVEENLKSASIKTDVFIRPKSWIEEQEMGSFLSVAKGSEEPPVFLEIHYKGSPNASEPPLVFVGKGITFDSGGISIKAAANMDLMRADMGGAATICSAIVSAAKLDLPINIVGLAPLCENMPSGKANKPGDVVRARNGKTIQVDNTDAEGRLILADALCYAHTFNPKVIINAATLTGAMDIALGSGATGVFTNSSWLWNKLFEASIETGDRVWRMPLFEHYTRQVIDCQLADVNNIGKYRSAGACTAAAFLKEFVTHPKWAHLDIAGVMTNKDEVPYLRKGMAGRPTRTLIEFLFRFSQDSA
Assay: Competitive inhibition of bovine LAPc using L-leucine-p-nitroanilide as substrate by spectrophotometric analysis
pKi: −log10 of the molar value.
Record form. Attribute: pKi. Fill in for each entry.

Give pKi for the following molecule: N[C@H]1CCc2ccccc2[C@@H](CCCc2ccccc2)C1=O (racemic) < 4.00

Return the recorded pKi value; entry: NC1Cc2ccccc2CC1=O (stereo not drawn) < 3.00

Give the measured pKi for N[C@H]1CCc2ccccc2CC1=O < 3.00

Identify measured pKi corresponding to N[C@H]1CCc2ccccc2[C@H](Sc2ccccc2)C1=O (racemic) < 4.00

# return recorded pKi for entry N[C@H]1CCc2ccccc2[C@@H](CCc2ccccc2)C1=O (racemic) < 4.00

Report pKi for N[C@H]1CCc2ccccc2[C@H](F)C1=O (racemic) < 3.00

Give me measured pKi, please, for this molecule: N[C@H]1CCc2ccccc2[C@@H](Cc2ccccc2)C1=O (racemic) < 4.00

Provide only the value of recorded pKi for N[C@H]1CCc2ccccc2[C@@H](Sc2ccccc2)C1=O (racemic) < 4.00

* * *

Molecular target: Leukotriene A-4 hydrolase (Homo sapiens, UniProt P09960)
Sequence (P09960 whole entry): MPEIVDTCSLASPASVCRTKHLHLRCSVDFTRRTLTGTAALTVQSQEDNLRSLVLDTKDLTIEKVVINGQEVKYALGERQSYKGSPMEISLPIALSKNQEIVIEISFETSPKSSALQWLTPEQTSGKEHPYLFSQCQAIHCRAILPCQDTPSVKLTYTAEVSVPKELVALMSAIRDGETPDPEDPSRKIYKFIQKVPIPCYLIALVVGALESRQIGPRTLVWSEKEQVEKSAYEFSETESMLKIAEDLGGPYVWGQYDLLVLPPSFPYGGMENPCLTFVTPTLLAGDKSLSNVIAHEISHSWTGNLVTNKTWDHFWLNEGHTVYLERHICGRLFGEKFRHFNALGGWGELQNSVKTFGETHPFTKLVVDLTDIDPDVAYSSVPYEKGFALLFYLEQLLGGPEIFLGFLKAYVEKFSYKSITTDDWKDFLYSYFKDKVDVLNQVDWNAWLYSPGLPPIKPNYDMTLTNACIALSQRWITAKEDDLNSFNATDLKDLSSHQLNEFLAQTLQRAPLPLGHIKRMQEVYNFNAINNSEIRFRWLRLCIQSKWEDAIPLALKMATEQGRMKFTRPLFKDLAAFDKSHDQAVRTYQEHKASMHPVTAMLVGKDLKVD
Experiment: Competitive inhibition of human recombinant LTA4H using alanine-p-nitroanilide as substrate by spectrophotometric analysis
Give measured Ki for each item. Keep answers brief.

Would you please give the reported Ki of N[C@H]1CCc2ccccc2[C@@H](Sc2ccccc2)C1=O (racemic) with Leukotriene A-4 hydrolase (Homo sapiens, UniProt P09960)? > 100 µM

Tell me its Ki on Leukotriene A-4 hydrolase (Homo sapiens, UniProt P09960): N[C@H]1CCc2ccccc2[C@H](SCc2ccccc2)C1=O (racemic) > 100 µM

Answer with Ki of N[C@H]1CCc2ccccc2[C@H](Sc2ccccc2)C1=O (racemic) measured for Leukotriene A-4 hydrolase (Homo sapiens, UniProt P09960). > 100 µM

Give measured Ki for N[C@H]1CCc2ccccc2[C@H](F)C1=O (racemic) (Leukotriene A-4 hydrolase (Homo sapiens, UniProt P09960)). > 1000 µM

Output reported Ki of the molecule N[C@H]1CCc2ccccc2[C@@H](CCCc2ccccc2)C1=O (racemic) on Leukotriene A-4 hydrolase (Homo sapiens, UniProt P09960). > 100 µM

Print Leukotriene A-4 hydrolase (Homo sapiens, UniProt P09960) Ki for N[C@H]1CCc2ccccc2[C@@H](CCc2ccccc2)C1=O (racemic) . > 100 µM

Find the measured Ki of N[C@H]1CCc2ccccc2[C@@H](Cc2ccccc2)C1=O (racemic) with Leukotriene A-4 hydrolase (Homo sapiens, UniProt P09960) as test system. > 100 µM

# lookup: Leukotriene A-4 hydrolase (Homo sapiens, UniProt P09960) Ki, key = N[C@H]1CCc2ccccc2CC1=O > 1000 µM
